system: NCI-H460 lung; experiment: NCI-60 one-dose screen, 48 h; details: 10 µM unless noted
Compounds without any hit were thinned out: in the full panel of roughly 83,000, 20% have a hit. The source made the active and inactive calls. Rule for the calls: active = growth percent below 10; inactive = the rest.
Pick one: T = active, F = inactive

1. Nc1c2c(nc3ccc(Cl)cc13)CC(c1ccccc1)CC2=O (centres undefined); F
2. Cn1c2c(Cl)c(Cl)ccc2c2c(C#N)c[nH]c(=O)c21; F

Now for another entry.
input: // outcome(item) with item = COc1ccc(C2CC(=O)c3c(nc4ccc(Cl)cc4c3N)C2)cc1 (centres undefined)
output: F

* * *

test system: KM12 colon; assay: NCI-60 one-dose screen, 48 h; conditions: 10 µM unless noted
Compounds without any hit were thinned out: in the full panel of roughly 83,000, 20% have a hit. Activity calls are given as the source filed them. Rule for the calls: active = growth percent below 10; inactive = the rest.
Write down one outcome, taken from class 1 (active), class 0 (inactive)

Consider the worked cases shown below.
1) CN(C)c1ccc(-c2ccc(-c3ccc(C(=N)N)c(F)c3)s2)cc1; class 1
2) C#CCn1c(C)cc(C)c(C#N)c1=O; class 0
3) OCC(CO)(CCl)CCl; class 0
4) N#CCCCCCn1c2ccccc2c2c3c(c4c5ccccc5n(CCCCCC#N)c4c21)C(=O)N(O)C3=O; class 0

input: Short answer needed: outcome of this test for "CC1=NN(c2ccc(S(=O)(=O)O)cc2Cl)C(=O)C1" ?
output: class 0

input: Dear colleague, could you share the recorded outcome for "NC1(N)C=CC2=C(C=C1)C1(N)C3=C(C=CC(N)(N)C=C3)N2C2(N)C3=C(C=CC(N)(N)C=C3)N1C1=C2C=CC(N)(N)C=C1" when you have a moment?
output: class 0

input: Please state the recorded outcome for this molecule: "Cc1ccc(-c2nc([P+](c3ccccc3)(c3ccccc3)c3ccccc3)c(N3CCOCC3)o2)cc1"
output: class 1

input: Hey, what did the test say about "O=C1CCCC=CC[C@H]2C=C(Cl)C(=O)C2=CC[C@H](CCCCC(F)(F)F)OC(=O)CCCC=CC[C@H]2C=C(Cl)C(=O)C2=CC[C@H](CCCCC(F)(F)F)OC(=O)CCCC=CC[C@H]2C=C(Cl)C(=O)C2=CC[C@H](CCCCC(F)(F)F)O1" ?
output: class 0

input: For "O=C(Nc1ccc(/C=C2\SC(=O)N(Cc3ccc(OC(F)(F)F)cc3)C2=O)cc1)c1ccc(Cl)c([N+](=O)[O-])c1" , which call appears in the assay record?
output: class 0

Data origin: PubChem BioAssay (NCI)
